molecular target: Fatty-acid amide hydrolase 1 (Homo sapiens, UniProt O00519); test: Inhibition of human FAAH
Sequence (O00519 whole entry): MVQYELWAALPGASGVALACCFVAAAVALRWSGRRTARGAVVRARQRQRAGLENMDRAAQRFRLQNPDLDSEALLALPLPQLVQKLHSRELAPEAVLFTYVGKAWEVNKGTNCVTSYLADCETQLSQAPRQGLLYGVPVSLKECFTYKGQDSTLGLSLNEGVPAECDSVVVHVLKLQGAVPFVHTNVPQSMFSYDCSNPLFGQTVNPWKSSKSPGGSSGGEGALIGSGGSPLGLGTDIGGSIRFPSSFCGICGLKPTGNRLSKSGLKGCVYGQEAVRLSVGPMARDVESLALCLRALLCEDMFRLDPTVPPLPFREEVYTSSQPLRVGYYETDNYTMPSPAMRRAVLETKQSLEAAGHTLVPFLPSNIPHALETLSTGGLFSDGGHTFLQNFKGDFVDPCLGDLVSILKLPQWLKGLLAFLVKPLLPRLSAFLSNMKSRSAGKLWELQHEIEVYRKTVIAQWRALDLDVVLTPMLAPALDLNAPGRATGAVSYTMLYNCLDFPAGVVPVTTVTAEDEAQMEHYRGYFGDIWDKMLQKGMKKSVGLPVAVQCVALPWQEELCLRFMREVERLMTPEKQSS
experimental.readout: IC50
Please make sure the unit comes right after the number.

IN: For the molecule O=C(CCCC1CCN(S(=O)(=O)c2ccccc2)CC1)c1ncco1 , what IC50 is on record?
OUT: 0.0025 µM

IN: Bench note: what IC50 did O=C(CCCC1CCN(C(=O)CCc2ccccc2)CC1)c1ncco1 show?
OUT: 0.022 µM

IN: Quick one: IC50 for O=C(CCCC1CCN(C(=O)CCC2CCCCC2)CC1)c1ncco1 ?
OUT: 0.003 µM

IN: Return reported IC50; argument: O=C(CCCCCCc1ccccc1)c1ncco1
OUT: 0.043 µM

IN: IC50 lookup needed for O=C(CCCC1CCN(C(=O)c2ccccc2)CC1)c1ncco1 , thanks.
OUT: 0.077 µM

IN: Dear colleague, I am looking for the recorded IC50 of the following molecule: COc1cccc(CN2CCC(CCCC(=O)c3ncco3)CC2)c1
OUT: 0.034 µM
